PROTOCOL DETAILS: Intrinsic clearance in human liver microsomes in presence of NADPH incubated for 5 to 45 mins by LC/MS analysis
Type: ADME, Microsome
CONDITION PARAMETERS: time 5-45 min, read-out: CLH
MEASURE: CLint scaled (mL/min/kg)
Report the value in mL/min/kg with no unit label.

O=C1Nc2ccccc2/C1=C1/Nc2ccccc2/C1=N\O    55.2
COc1ccc(N(C(=O)CCl)C(C(=O)NCCc2ccccc2)c2cccs2)cc1Cl (stereo not drawn)    2680

Kindly consider the entry below.
INPUT: Given the entry COc1ccc2c(c1)NC(=O)/C2=C1\Nc2ccccc2\C1=N/OCCCNC(=O)CCn1cc(COc2ccc(N(C(=O)CCl)C(C(=O)NCCc3ccccc3)c3cccs3)cc2Cl)nn1 (stereo not drawn) , report its measured CLint scaled.
OUTPUT: 27.3

* * *

TARGET DESC: CDK4/Cyclin D3 (Homo sapiens, UniProt P11802)
Sequence (P11802 whole entry): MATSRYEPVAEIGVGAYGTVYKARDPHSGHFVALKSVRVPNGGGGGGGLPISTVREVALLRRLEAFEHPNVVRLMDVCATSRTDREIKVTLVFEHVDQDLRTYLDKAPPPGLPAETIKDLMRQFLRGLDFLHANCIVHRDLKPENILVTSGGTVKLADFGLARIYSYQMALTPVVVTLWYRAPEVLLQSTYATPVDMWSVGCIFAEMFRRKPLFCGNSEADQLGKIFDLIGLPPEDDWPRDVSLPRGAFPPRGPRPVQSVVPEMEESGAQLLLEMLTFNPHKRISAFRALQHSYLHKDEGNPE
Sequence (P30281 whole entry, further chain): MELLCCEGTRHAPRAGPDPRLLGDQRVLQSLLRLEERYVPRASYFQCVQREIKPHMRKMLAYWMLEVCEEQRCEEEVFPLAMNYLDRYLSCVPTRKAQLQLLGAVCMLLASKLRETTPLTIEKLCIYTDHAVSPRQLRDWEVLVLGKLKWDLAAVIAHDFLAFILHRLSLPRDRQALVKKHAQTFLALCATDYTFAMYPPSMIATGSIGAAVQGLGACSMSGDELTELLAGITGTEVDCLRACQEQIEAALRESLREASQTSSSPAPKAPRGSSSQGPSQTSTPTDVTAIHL
PROTOCOL DETAILS: Inhibition of CDK4/CyclinD3 (unknown origin) preincubated for 15 mins followed by substrate and ATP addition incubated for 10 mins by ADP-glo luminescent assay
MEASURE: IC50 (nM)
Use nM as the unit, but write only the number.

INPUT: Any idea what IC50 came out for COc1ccc2c(c1)NC(=O)/C2=C1\Nc2ccccc2\C1=N/OCCCNC(=O)CCn1cc(COc2ccc(N(C(=O)CCl)C(C(=O)NCCc3ccccc3)c3cccs3)cc2Cl)nn1 (stereo unspecified) on CDK4/Cyclin D3 (Homo sapiens, UniProt P11802)?
OUTPUT: 191

* * *

TARGET DESC: CDK6/cyclin D3 (Homo sapiens) (UniProt P30281+Q00534)
PROTOCOL DETAILS: Inhibition of CDK6/CyclinD3 (unknown origin) at 100 nM preincubated for 15 mins followed by substrate and ATP addition incubated for 10 mins by ADP-glo luminescent assay relative to control
Type: protein-complex assay
CONDITION PARAMETERS: time 25.0 min
Catalogue of inhibition readings, one per entry.
All answers are understood in %, so give the number only.

O=C(CCn1cc(COc2ccc(N(C(=O)CCl)C(C(=O)NCCc3ccccc3)c3cccs3)cc2Cl)nn1)NCCCO/N=C1/C(=C2/C(=O)Nc3cc(Cl)c(Cl)cc32)Nc2ccccc21 (stereo unspecified)    12.8
O=C(CCn1cc(COc2ccc(N(C(=O)CCl)C(C(=O)NCCc3ccccc3)c3cccs3)cc2Cl)nn1)O/N=C1/C(=C2/C(=O)Nc3ccccc32)Nc2ccc(Cl)cc21 (stereo unspecified)    40.4
O=C(CCn1cc(COc2ccc(N(C(=O)CCl)C(C(=O)NCCc3ccccc3)c3cccs3)cc2Cl)nn1)NCCCO/N=C1/C(=C2/C(=O)Nc3cc(Br)ccc32)Nc2ccccc21 (stereo unspecified)    28.3
O=C(CCn1cc(COc2ccc(N(C(=O)CCl)C(C(=O)NCCc3ccccc3)c3cccs3)cc2Cl)nn1)O/N=C1/C(=C2/C(=O)Nc3ccccc32)Nc2ccc(F)cc21 (stereo unspecified)    21.4
COc1ccc2c(c1)NC(=O)/C2=C1\Nc2ccccc2\C1=N/OCCCNC(=O)CCn1cc(COc2ccc(N(C(=O)CCl)C(C(=O)NCCc3ccccc3)c3cccs3)cc2Cl)nn1 (stereo unspecified)    51.8

INPUT: Recorded inhibition for O=C(CCn1cc(COc2ccc(N(C(=O)CCl)C(C(=O)NCCc3ccccc3)c3cccs3)cc2Cl)nn1)O/N=C1/C(=C2/C(=O)Nc3ccccc32)Nc2ccc(Br)cc21 (stereo unspecified) , please?
OUTPUT: 34.9
